Entries and their kon
target: T1, human programmed cell death protein 1 (hPD-1) C93S (aa 24-167) (Homo sapiens, UniProt Q15116, C93S); test: SPR; Carterra LSA; Fab from the ammonium sulfate precipitate of the culture supernatant immobilised on a NiHC200M chip; hPD-1 (1-1024 nM) or mPD-1-Fc (4-1024 nM) as analyte, fourfold dilution series, no regeneration; HBS-EP pH 7.4, 25 °C; medians over the spots of a construct, KD = koff/kon; details: one partner purified
T1 construct: made as a fusion with a TEV site and human Fc; the Fc was cut off with TEV protease; source: Expi293F, purified (Protein A, TEV cleavage of Fc, SEC; monomer fractions); not shown: Fc (human), C-terminal, cleaved
T1 sequence (Q15116 24-167 C93S): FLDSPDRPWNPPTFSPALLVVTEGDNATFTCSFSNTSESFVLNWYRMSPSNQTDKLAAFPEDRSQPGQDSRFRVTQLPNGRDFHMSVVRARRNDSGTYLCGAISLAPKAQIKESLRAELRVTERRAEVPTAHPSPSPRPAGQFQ
Write the value in M⁻¹ s⁻¹ as a bare number.

Below, 2 binders whose answers are already recorded.
binder: toripalimab Fab H.V50A (Fab, V domains shown, heavy chain of Sm3 with this change; numbers count from the chain's first residue; as the light chain of Sm3; source: Brevibacillus, culture supernatant (ammonium sulfate precipitate); not shown: 6xHis, C-terminal, kept; 6xHN, C-terminal, kept) VH: QGQLVQSGAEVKKPGASVKVSCKASGYTFTDYEMHWVRQAPIHGLEWIGAIESETGGTAYNQKFKGRVTITADKSTSTAYMELSSLRSEDTAVYYCAREGITTVATTYYWYFDVWGQGTTVTVSS VL: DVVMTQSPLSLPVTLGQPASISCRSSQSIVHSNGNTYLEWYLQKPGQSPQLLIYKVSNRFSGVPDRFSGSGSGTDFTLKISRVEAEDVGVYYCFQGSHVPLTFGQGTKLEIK
unit info: M⁻¹ s⁻¹
kon: 15900

binder: toripalimab Fab H.E54Y (Fab, V domains shown, heavy chain of Sm3 with this change; numbers count from the chain's first residue; as the light chain of Sm3; source: Brevibacillus, culture supernatant (ammonium sulfate precipitate); not shown: 6xHis, C-terminal, kept; 6xHN, C-terminal, kept) VH: QGQLVQSGAEVKKPGASVKVSCKASGYTFTDYEMHWVRQAPIHGLEWIGVIESYTGGTAYNQKFKGRVTITADKSTSTAYMELSSLRSEDTAVYYCAREGITTVATTYYWYFDVWGQGTTVTVSS VL: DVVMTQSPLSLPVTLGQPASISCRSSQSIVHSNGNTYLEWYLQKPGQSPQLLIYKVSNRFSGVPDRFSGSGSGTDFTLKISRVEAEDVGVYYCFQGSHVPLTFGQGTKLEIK
unit info: M⁻¹ s⁻¹
kon: 30700

Here's the next entry for you.
Q. Suppose we examine the binder toripalimab Fab H.T107A (Fab, V domains shown, heavy chain of Sm3 with this change; numbers count from the chain's first residue; as the light chain of Sm3; source: Brevibacillus, culture supernatant (ammonium sulfate precipitate); not shown: 6xHis, C-terminal, kept; 6xHN, C-terminal, kept) VH: QGQLVQSGAEVKKPGASVKVSCKASGYTFTDYEMHWVRQAPIHGLEWIGVIESETGGTAYNQKFKGRVTITADKSTSTAYMELSSLRSEDTAVYYCAREGITTVATAYYWYFDVWGQGTTVTVSS VL: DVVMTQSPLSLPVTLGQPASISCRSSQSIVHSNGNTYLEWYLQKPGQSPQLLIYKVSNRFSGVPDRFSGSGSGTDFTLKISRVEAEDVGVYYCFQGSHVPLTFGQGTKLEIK ; what kon value has been reported?
A. 6520
